Entries and their IC50
system: HepG2 (human hepatocellular carcinoma); assay: In vitro cytotoxicity, MTT test; type: cell-based; conditions: HepG2, MTT, 72 h, read-out: Cytotoxicity IC50, HepG2
measurement_type: IC50 (µM)

- structure_smiles: "CCCCCCCCOC(=O)c1cc2ccc3c(Br)c(C4=CCCCC4)[se]c3c2oc1=O"
  target_or_system: "HepG2 (human hepatocellular carcinoma)"
  uom: "µM"
  comparison_symbol: ">"
  numeric_value: 177
- structure_smiles: "O=C(O)c1cc2ccc3c(Br)c(C4(O)CCCCC4)[se]c3c2oc1=O"
  target_or_system: "HepG2 (human hepatocellular carcinoma)"
  uom: "µM"
  comparison_symbol: ">"
  numeric_value: 213
- structure_smiles: "COC(=O)c1cc2ccc3c(Br)c(C(C)(C)O)[se]c3c2oc1=O"
  target_or_system: "HepG2 (human hepatocellular carcinoma)"
  uom: "µM"
  comparison_symbol: ">"
  numeric_value: 117
- structure_smiles: "COC(=O)c1cc2ccc3c(Br)c(CN4CCCCC4)[se]c3c2oc1=O"
  target_or_system: "HepG2 (human hepatocellular carcinoma)"
  uom: "µM"
  comparison_symbol: "="
  numeric_value: 181
- structure_smiles: "COC(=O)c1cc2ccc3c(Br)c(C4(O)CCCCC4)[se]c3c2oc1=O"
  target_or_system: "HepG2 (human hepatocellular carcinoma)"
  uom: "µM"
  comparison_symbol: ">"
  numeric_value: 117
- structure_smiles: "O=C(c1cc2ccc3c(Br)c(C4=CCCCC4)[se]c3c2oc1=O)N1CCCCC1"
  target_or_system: "HepG2 (human hepatocellular carcinoma)"
  uom: "µM"
  comparison_symbol: "="
  numeric_value: 103
- structure_smiles: "COC(=O)c1cc2ccc3c(Br)c(CN4CCN(C)CC4)[se]c3c2oc1=O"
  target_or_system: "HepG2 (human hepatocellular carcinoma)"
  uom: "µM"
  comparison_symbol: "="
  numeric_value: 187
- structure_smiles: "O=C(c1cc2ccc3c(Br)c(C4=CCCCC4)[se]c3c2oc1=O)N1CCOCC1"
  target_or_system: "HepG2 (human hepatocellular carcinoma)"
  uom: "µM"
  comparison_symbol: "="
  numeric_value: 63
- structure_smiles: "COC1(c2[se]c3c(ccc4cc(C(=O)O)c(=O)oc43)c2Br)CCCCC1"
  target_or_system: "HepG2 (human hepatocellular carcinoma)"
  uom: "µM"
  comparison_symbol: "="
  numeric_value: 97
- structure_smiles: "COC1(c2[se]c3c(ccc4cc(C(=O)N5CCOCC5)c(=O)oc43)c2Br)CCCCC1"
  target_or_system: "HepG2 (human hepatocellular carcinoma)"
  uom: "µM"
  comparison_symbol: "="
  numeric_value: 47
- structure_smiles: "COC(=O)c1cc2ccc3c(Br)c(C4=CCCC4)[se]c3c2oc1=O"
  target_or_system: "HepG2 (human hepatocellular carcinoma)"
  uom: "µM"
  comparison_symbol: "="
  numeric_value: 197
- structure_smiles: "CCCCCCCCCCOC(=O)c1cc2ccc3c(Br)c(C4(O)CCCCC4)[se]c3c2oc1=O"
  target_or_system: "HepG2 (human hepatocellular carcinoma)"
  uom: "µM"
  comparison_symbol: "="
  numeric_value: 151
- structure_smiles: "COC(=O)c1cc2ccc3c(Br)c(C4(OC)CCCCC4)[se]c3c2oc1=O"
  target_or_system: "HepG2 (human hepatocellular carcinoma)"
  uom: "µM"
  comparison_symbol: "="
  numeric_value: 103
- structure_smiles: "CC(C)CCC[C@@H](C)[C@H]1CC[C@H]2[C@@H]3CC=C4C[C@@H](OC(=O)c5cc6ccc7c(Br)c(C8=CCCCC8)[se]c7c6oc5=O)CC[C@]4(C)[C@H]3CC[C@]12C"
  target_or_system: "HepG2 (human hepatocellular carcinoma)"
  uom: "µM"
  comparison_symbol: ">"
  numeric_value: 117

Where do these numbers come from? They come from patent US10561681B2.
